Experiment: ACEA_ER_AUC_viability: ACEA Biosciences xCELLigence Real-Time Cell Analysis on Estrogen Receptor Agonism for Viability (AID 2283782);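 also: continuous compound exposure with impedance area under curve over 80 h; hit means loss of impedance signal meaning reduced cell growth or viability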
Inconclusive results are not listed. Active and inactive are the calls of the source. The calls were made as follows: active = hit-call score of the fitted dose curve at least 0.9, where 1 is the maximum; inconclusive = response in the unintended direction; inactive = score below 0.9.
Outcomes: yes (1) = active, no (0) = inactive

COMPOUND | LABEL_CLASS
CCCCCC(=O)O[C@]1(C(C)=O)CC[C@H]2[C@@H]3CCC4=CC(=O)CC[C@]4(C)[C@H]3CC[C@@]21C | yes (1)
CCCCC/C=C\C=C\C(=O)OCC | yes (1)
CCCCN(CCCC)CCCCCCN(CCCC)CCCC | no (0)
O=C1OCc2ccccc21 | no (0)
CCCCCC1CCC(=O)O1 (centres undefined) | no (0)
CC1=CC(=O)[C@H]2C[C@@H]1C2(C)C | yes (1)
CCCCC(CC)COC(=O)COc1ccc(Cl)cc1C (centres undefined) | no (0)
O=C1CCC(=O)N1 | yes (1)
NC(=O)c1c(Cl)cccc1Cl | no (0)
c1ccc2c(c1)-c1ccc3ccc4cccc5cc-2c1c3c45 | no (0)
CCOC(=O)C=Cc1ccccc1 | no (0)
COc1ccc2[nH]cc(CCNC(C)=O)c2c1 | no (0)
Cc1ccc(C(C)(C)O)cc1 | no (0)
CCCC[N+](C)(CCCC)CCCC | no (0)

====

Experiment: ATG_RORE_CIS: Attagene CIS-FACTORIAL HepG2 Assay for human RAR-related Orphan Receptor Element (RORE) (AID 2282959)
Conditions: HepG2 Attagene cis-factorial RORE reporter, mRNA; actives raise or lower the signal
Activity calls are given as the source filed them. How the source made its calls: active means hit-call score of the fitted dose curve at least 0.9, where 1 is the maximum; inactive means score below 0.9.

MOLECULE | outcome
CCCCOCCOCCOCCO | inactive
CCO[Si](CCC#N)(OCC)OCC | inactive
CCOC(=O)C=Cc1ccccc1 | inactive
C=CC(O)CCCCC (centres undefined) | inactive
CCCO | inactive
C1CCCNCC1 | inactive
O=c1cc[nH]cc1 | inactive
CCCCCCC(C)O (centres undefined) | inactive
Cc1cc(O)c2c(c1)C(=O)c1cc(O)cc(O)c1C2=O | inactive

====

Assay: ATG_VDRE_CIS: Attagene CIS-FACTORIAL HepG2 Assay for human Vitamin D Receptor Element (VDRE) (AID 2282968)
Conditions: HepG2 VDRE cis-reporter transcription, actives raise or lower the signal
Calls of active or inactive are those of the source. How the source made its calls: active means hit-call score of the fitted dose curve at least 0.9, where 1 is the maximum; inactive means score below 0.9.
Possible outcomes: 1 (yes) for active, 0 (no) for inactive

COMPOUND | LABEL_CLASS
C=C(C)C(=O)OCCC(C)OC(=O)C(=C)C (stereo unspecified) | 0 (no)
C=C(C)C(=O)OCCN(C)C | 0 (no)
CC/C=C\CCOC(C)OCC (stereo unspecified) | 0 (no)
CC1(C)CC(=O)CC(C)(C)N1 | 0 (no)
CCCCCCCCCO | 0 (no)
O=C(O)c1cccc(Cl)n1 | 0 (no)
CCCCC(CC)COCCO (stereo unspecified) | 0 (no)
CC1=C(C=O)C(C)(C)CCC1 | 0 (no)
CC(C)=CC(=O)O | 0 (no)
CCCCN(CCO)CCO | 0 (no)
CCCCCCC(C)O (stereo unspecified) | 0 (no)
COc1ccc2[nH]cc(CCNC(C)=O)c2c1 | 0 (no)
COc1ccccc1NC(=O)CC(C)=O | 1 (yes)
CCCO | 0 (no)
CC(C)(O)CCc1ccccc1 | 0 (no)
C[C@H](CCC(=O)O)[C@H]1CC[C@H]2[C@@H]3CC[C@@H]4C[C@H](O)CC[C@]4(C)[C@H]3CC[C@]12C | 1 (yes)

====

Assay: BSK_CASM3C_Proliferation: Cell Proliferation Assessment in the BioMAP Diversity Plus: CASM3C Assay (AID 2283047);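 also: sulforhodamine B total protein stain as relative cell number at 560 nm; sub-confluent cells exposed 48 h before staining; fitted both ways against DMSO so gain or loss of cell number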
Settings: primary human coronary artery smooth muscle cells
Activity calls are given as the source filed them. The calls were made as follows: active = hit-call score of the fitted dose curve at least 0.9, where 1 is the maximum; inactive = score below 0.9.
Possible outcomes: active, inactive

MOLECULE | LABEL_CLASS
COc1ccccc1NC(=O)CC(C)=O | inactive
c1ccc(Sc2ccccc2)cc1 | inactive
CCOC(=O)C=Cc1ccccc1 | inactive
O=C(O)C(F)(F)OC(F)(F)C(F)(F)OC(F)(F)C(F)(F)C(F)(F)C(F)(F)F | inactive
CCCCCCCC1CCCC1=O (configuration not stated) | active
CC1=CC(C)C(C=O)C(C)C1 (configuration not stated) (tested in a mixture with another compound) | inactive
O=C1OC2(c3ccc(O)cc3Oc3cc(O)ccc32)c2ccccc21 | inactive
COC(=O)c1ccc(C(=O)OC)cc1 | inactive
C=CC(=O)OCC(CO)(COC(=O)C=C)COC(=O)C=C | active
CC(C)(CO)CO | inactive
CC=CC(=O)C1=C(C)C=CCC1(C)C | inactive
CCCCOCCOCCO | inactive

====

Assay: ATG_TAL_CIS: Attagene CIS-FACTORIAL HepG2 Assay for human TAL Basal Promoter (AID 2282966);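 also: background control endpoint measuring basal TAL promoter reporter mRNA not a specific factor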
Settings: HepG2 Attagene cis-factorial TAL promoter reporter; actives raise or lower the signal
Activity calls are given as the source filed them. The calls were made as follows: active = hit-call score of the fitted dose curve at least 0.9, where 1 is the maximum; inactive = score below 0.9.
Outcomes: active, inactive

COMPOUND | LABEL_CLASS
OCCCO | inactive
CC1COC(=O)O1 (stereo not drawn) | inactive
CC(=O)c1ccc2ccccc2c1 | inactive
CCNC(=S)NCC | inactive
O=C(O)c1ccco1 | inactive
CCCCCCCCCCCCOC(C)=O | inactive
CCC(C)(C)C1CCC(=O)CC1 | inactive
CC(C)(C)c1cc(CCC(=O)OCCSCCOC(=O)CCc2cc(C(C)(C)C)c(O)c(C(C)(C)C)c2)cc(C(C)(C)C)c1O | inactive
CC/C=C\C#N | inactive
CC(C)COC(=O)c1ccccc1 | inactive
N=C1N=C(N)c2ccccc21 | inactive
C=C(C)C(=O)OCCOCCOC(=O)C(=C)C | inactive
CC(CO)c1ccccc1 (stereo not drawn) | inactive
CC1=CCC(C(C)C)=CC1 | inactive
CCCCCCCCOC(=O)c1ccc(O)cc1 | inactive
O=C(OCc1ccccc1)c1ccccc1O | inactive
CCOc1ccc(NC(C)=O)cc1 | inactive
NC(=O)NC(N)=O | inactive
CC(C)Cc1ccc(C(C)C(=O)O)cc1 (stereo not drawn) | inactive
CC(C)N(c1ccccc1)C(C)C | inactive
C=CCCCCCCCCC(=O)OCC | inactive
NCCN1CCNCC1 | inactive
CCC(=O)OCC=Cc1ccccc1 | inactive
O=C(C=Cc1ccccc1)OCCCc1ccccc1 | inactive
CCCCC/C=C\C=C\C(=O)OCC | inactive
CC(C)(C)C1CCC(O)CC1 (stereo not drawn) | inactive
C=C1CC[C@H]2O[C@]2(C)CC[C@@H]2[C@@H]1CC2(C)C | inactive
c1coc(CNc2ncnc3nc[nH]c23)c1 | inactive
CCOC(=O)C=Cc1ccccc1 | inactive
Cc1ccccc1S | inactive
Cc1ccncc1 | inactive
CN1CCc2cccc3c2[C@H]1Cc1ccc(O)c(O)c1-3 | active
O=S(=O)(O)CCCN1CCOCC1 | inactive

====

Read-out: Matrix Metallopeptidase 1 (MMP1), MMP1 (gene 4312)
Experiment: BSK_hDFCGF_MMP1: BioMAP Diversity Plus: hDFCGF Assay for Matrix Metallopeptidase 1 (MMP1) Biomarker Activity (AID 2283064)
Settings: primary human foreskin fibroblasts; actives raise or lower the signal
The source made the active and inactive calls. The calls were made as follows: active = hit-call score of the fitted dose curve at least 0.9, where 1 is the maximum; inactive = score below 0.9.
Outcomes: active, inactive

COMPOUND | LABEL_CLASS
CC(C)Cc1ccc(C(C)C(=O)O)cc1 (stereo not given) | inactive
COc1ccccc1NC(=O)CC(C)=O | inactive
CC(=O)OC(C)(C)C1CC=C(C)CC1 (stereo not given) | inactive
CC1(C)[C@H](C=C(Cl)Cl)[C@H]1C(=O)OCc1cccc(Oc2ccccc2)c1 | inactive
O=S(=O)(O)C(F)(F)C(F)(F)OC(F)(F)C(F)(F)F | inactive
CC(=O)c1ccc(C)cc1 | inactive
CCOC(=O)C=Cc1ccccc1 | inactive
c1ccc2c(c1)-c1ccc3ccc4cccc5cc-2c1c3c45 | inactive
c1ccc(OCCOc2ccccc2)cc1 | inactive
CCC(=O)OCC=Cc1ccccc1 | inactive
CCCCCCCCCCCCS | active
CC(=O)OCC=C(C)CCC=C(C)CCC=C(C)C | inactive
C=C1CC/C=C(\C)CC[C@@H]2[C@@H]1CC2(C)C | active
CCCCCCCCCC(=O)OCC | inactive
c1ccc(Sc2ccccc2)cc1 | active

====

Read-out: Transforming Growth Factor (TGFA), TGFA (gene 7039)
Assay: LTEA_HepaRG_TGFA: Life Technologies and Expression Analysis (LTEA) Assay for Transforming Growth Factor (TGFA) using HepaRG (AID 2283532)
Details: mRNA level, 48 h; actives raise or lower the signal
Calls of active or inactive are those of the source. The calls were made as follows: active = hit-call score of the fitted dose curve at least 0.9, where 1 is the maximum; inactive = score below 0.9.
Outcome codes: active, inactive

SMILES_CODE | LABEL_CLASS
C#C[C@]1(O)CC[C@H]2[C@@H]3CCc4cc(O)ccc4[C@H]3CC[C@@]21C | inactive
C[C@]12CC[C@@H]3c4ccc(O)cc4CC[C@H]3[C@@H]1CC[C@@H]2O | inactive
O=C(c1ccc(OCCN2CCCCC2)cc1)c1c(-c2ccc(O)cc2)sc2cc(O)ccc12 | active
C=C(C)C(N)=O | inactive
COC(=O)c1ccc(C(=O)OC)cc1 | inactive
